src = the supplement of paper PMC9112550

tested on: Escherichia coli TOP10; assay: shrunken log2 fold change of peptide-encoding DNA abundance (4.5 h post-induction vs induction); higher = less antimicrobial activity (less host growth inhibition); details: time post-induction: 4.5 h; library: site-saturation at positions 5, 18, 19, 20
Can you tell me shrunken log2 fold change for the items I'm about to list?

Below, 3 sequences whose answers are already recorded.
# residue_sequence, shrunken log2 fold change
data = [
    ("RRIRWRPPRLPRPRPRPTQKPRP", 0.482),
    ("RRIRFRPPRLPRPRPRPLMVPRP", -0.38),
    ("RRIRSRPPRLPRPRPRPHAAPRP", 0.331),
]

Let's switch to this sequence now.
Provide measured shrunken log2 fold change on Escherichia coli TOP10 for RRIRKRPPRLPRPRPRPDGRPRP please.
0.0261

====

system: Escherichia coli TOP10; assay: shrunken log2 fold change of peptide-encoding DNA abundance (4.5 h post-induction vs induction); higher = less antimicrobial activity (less host growth inhibition); conditions: time post-induction: 4.5 h; library: site-saturation at positions 5, 18, 19, 20
measured_attribute: shrunken log2 fold change
One number for each entry.

# residue_sequence, measured_attribute, quantitative_result
measured = [
    ("RRIRTRPPRLPRPRPRPEQHPRP", "shrunken log2 fold change", 0.0492),
]

Okay, here is my list. What is shrunken log2 fold change for each of these?
1. RRIRWRPPRLPRPRPRPLNEPRP
2. RRIRQRPPRLPRPRPRPRYMPRP
3. RRIRMRPPRLPRPRPRPRTKPRP

-0.0646
-0.0938
1.21

====

test system: Escherichia coli TOP10; test: shrunken log2 fold change of peptide-encoding DNA abundance (4.5 h post-induction vs induction); higher = less antimicrobial activity (less host growth inhibition); settings: time post-induction: 4.5 h; library: site-saturation at positions 5, 18, 19, 20;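 note: peptides expressed intracellularly from a pBAD plasmid library in pooled LB shake-flask culture, induced with 0.3% L-arabinose, DNA abundance read by NGS, three biological replicates, DESeq2 with apeglm shrinkage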
Cut-off -0.006 on shrunken log2 fold change, inclusive. At or above means Yes; below means No.

# residue_sequence, label
measured = [
    ("RRIRNRPPRLPRPRPRPDDHPRP", "No"),
]

Textbook exercise: given the entry RRIRVRPPRLPRPRPRPQVVPRP , state whether its shrunken log2 fold change is greater than or equal to -0.006.
Yes

Identify whether the reported shrunken log2 fold change of the following sequence is -0.006 or greater: RRIRSRPPRLPRPRPRPWARPRP
Yes

Decide: shrunken log2 fold change of RRIRLRPPRLPRPRPRPAHIPRP >= -0.006?
Yes

Dear colleague, could you confirm whether RRIRTRPPRLPRPRPRPQYMPRP has shrunken log2 fold change at or above -0.006?
No
